The measured values listed here are drawn from patent US20110065796A1.

Assay: Pharmacokinetics in rat hepatic portal and tail veins after oral administration
Type: in vivo
Conditions: tail vein (systemic) plasma, po, 1 mg/kg, read-out: Tail vein Prodrug Cmax
REPORTED ENDPOINT: Cmax (ng/mL)
Numeric only. Scale: ng/mL

Cmax reading for CC(C)[C@H](N)C(=O)NCCC(=O)NC(=N)NC(=O)Cc1c(Cl)cccc1Cl [Compound 2, Guanfacine (β-Alanine-(S)-Valine) Amide] : 4.2

Cmax reading for CC(C)[C@@H](N)C(=O)N[C@@H](CCC(=O)NC(=N)NC(=O)Cc1c(Cl)cccc1Cl)C(=O)O : 3.5

Cmax reading for CNCC(=O)N[C@@H](COC(=O)NC(=N)NC(=O)Cc1c(Cl)cccc1Cl)C(=O)O : 7.07

Cmax reading for CNCC(=O)N[C@H](C(=O)O)[C@@H](C)OC(=O)NC(=N)NC(=O)Cc1c(Cl)cccc1Cl : 9.37

Cmax reading for C[C@@H](N)C(=O)N[C@@H](CCC(=O)NC(=N)NC(=O)Cc1c(Cl)cccc1Cl)C(=O)O : 6.14

---

Assay: Prodrug stability in simulated intestinal fluid
Details: 37° C., pH 6.8, HPLC
Give % prodrug remaining following incubation for 2 h in simulated intestinal fluid pH 6.8 for every item shown.
Numeric only. Scale: %

% prodrug remaining following incubation for 2 h in simulated intestinal fluid pH 6.8 reading for N=C(NC(=O)Cc1c(Cl)cccc1Cl)NC(=O)NC(C(=O)O)c1ccccc1 (stereo not shown) : 100

% prodrug remaining following incubation for 2 h in simulated intestinal fluid pH 6.8 reading for N=C(NC(=O)Cc1c(Cl)cccc1Cl)NC(=O)O[C@@H]1CN[C@H](C(=O)O)C1 : 108

% prodrug remaining following incubation for 2 h in simulated intestinal fluid pH 6.8 reading for CC[C@H](C)[C@H](N)C(=O)NCCOC(=O)NC(=N)NC(=O)Cc1c(Cl)cccc1Cl : 100

% prodrug remaining following incubation for 2 h in simulated intestinal fluid pH 6.8 reading for O=C(O)CC1N=C(NC(=O)Cc2c(Cl)cccc2Cl)NC1=O (stereo not shown) : 84

---

Test: Prodrug stability in simulated gastric fluid
Conditions: 37° C., pH 1.1, HPLC
Give % prodrug remaining following incubation for 1 h in simulated gastric fluid pH 1.1 for every item shown.
Numeric only. Scale: %

% prodrug remaining following incubation for 1 h in simulated gastric fluid pH 1.1 reading for N=C(NC(=O)CC[C@H](NC(=O)[C@H](N)CO)C(=O)O)NC(=O)Cc1c(Cl)cccc1Cl [Compound 47] : 72

% prodrug remaining following incubation for 1 h in simulated gastric fluid pH 1.1 reading for N=C(NC(=O)CC[C@H](NC(=O)[C@@H]1CCC(=O)N1)C(=O)O)NC(=O)Cc1c(Cl)cccc1Cl [Compound 6] : 81

% prodrug remaining following incubation for 1 h in simulated gastric fluid pH 1.1 reading for N=C(NC(=O)Cc1c(Cl)cccc1Cl)NC(=O)Oc1ccc(C[C@H](N)C(=O)O)cc1 [Compound 13, Guanfacine (S)-Tyrosine Carbamate] : 74

% prodrug remaining following incubation for 1 h in simulated gastric fluid pH 1.1 reading for CC(C)[C@H](NC(=O)CCCC(=O)NC(=N)NC(=O)Cc1c(Cl)cccc1Cl)C(=O)O [Compound 1, Guanfacine (Glutaryl-(S)-Valine) Amide] : 80

% prodrug remaining following incubation for 1 h in simulated gastric fluid pH 1.1 reading for O=C(O)CC1N=C(NC(=O)Cc2c(Cl)cccc2Cl)NC1=O (stereo not drawn) [Compound 4, Guanfacine Fumaryl Cyclic Adduct] : 97

% prodrug remaining following incubation for 1 h in simulated gastric fluid pH 1.1 reading for C[C@@H](OC(=O)NC(=N)NC(=O)Cc1c(Cl)cccc1Cl)[C@H](NC(=O)[C@@H]1CCC(=O)N1)C(=O)O [Compound 19] : 92
